# target entity: neural stem cell surface (cell surface molecule(s) of NSCs, not identified) (rat (adult hippocampus, stated in Example 1))
# method summary: flow cytometry, GFP bacterial clone displaying the peptide on NSCs
test readout: % NSCs with Bacteria (%)
Answers are plain numbers, in %.

// below: answered binders
Task: Quick one: % NSCs with Bacteria of WNCIKGSSWACVW [clone 7C-21 peptide] ?
Result: 75.5

Task: Could you do the same for DHKFGLVMLNKYAYAG [clone 15-2 peptide] , please?
Result: 75.9

Task: Could you do the same for GECFYYVMNTCVW [clone 7C-6 peptide] , please?
Result: 61.8

// for each binder below, give its % NSCs with Bacteria
1. RRELVRMTDWVWVSG [clone 15-32 peptide]
2. WWCKKPEYWYCIW [clone Co-18 peptide]
3. WVCLWRHRGDCSI [clone Co-12 peptide]
4. SLCAAYNRWACIW [clone Co-1 peptide]
5. WVCNDLIHHFCVW [clone Co-15 peptide]

Result:
1. 70.4
2. 71.3
3. 74.3
4. 73.8
5. 70.9
